Taken from ChEMBL document CHEMBL5346881.

# TEST_METHOD_NOTES: Acute toxicity in ip dosed CB17 SCID mouse assessed as lethal dose
# Format: organism-based
# CONDITION_DETAILS: CB17 SCID, in vivo, read-out: LD50
READOUT_TYPE: LD50 (mg/kg)
Could you give me the number in mg/kg? Just the number is fine.

**Q:** State the recorded LD50 for this entry: C[C@]12CC[C@H]3[C@@H](CCC4=CC(=O)NCC[C@@]43C)[C@@H]1CC[C@@H]2OC(=O)[C@@H](O)COc1ccc(N(CCCl)CCCl)cc1
**A:** 28

----------
# TEST_METHOD_NOTES: Growth inhibition of human UWB1289 cells harboring BRCA1 incubated for 48 hrs by MTT assay
# Format: functional
READOUT_TYPE: GI50

**Q:** State the recorded GI50 for this entry: CC(=O)O[C@@H](COc1ccc(N(CCCl)CCCl)cc1)C(=O)Oc1ccc2c(c1)CC[C@@H]1[C@@H]2CC[C@]2(C)NC(=O)CC[C@@H]12
**A:** 3000 nM

**Q:** State the recorded GI50 for this entry: CC(=O)O[C@@H](COc1ccc(N(CCCl)CCCl)cc1)C(=O)O[C@H]1CC[C@H]2[C@@H]3CCC4=CC(=O)NCC[C@]4(C)[C@H]3CC[C@]12C
**A:** 700 nM

----------
# System: MDA-MB-453
# TEST_METHOD_NOTES: Antiproliferative activity against human MDA-MB-453 cells assessed inhibition of cell growth incubated for 48 hrs by MTT assay
# Type: functional, cell-based
# CONDITION_DETAILS: MDA-MB-453, 48 h
Readings of pIC50 for the listed molecules
On this scale, pIC50 is minus log10 of a concentration expressed in M (mol/L).

The following molecules have reported results that may help.
C[C@]12CC(=O)[C@H]3[C@@H](CCC4=CC(=O)NCC[C@@]43C)[C@@H]1CC[C@@H]2OC(=O)CCOc1ccc(N(CCCl)CCCl)cc1 ... 4.19
C[C@]12CC(=O)[C@H]3[C@@H](CCC4=CC(=O)NCC[C@@]43C)[C@@H]1CC[C@@H]2OC(=O)[C@@H](N)COc1ccc(N(CCCl)CCCl)cc1 ... 5.40

Now consider the entry below.
**Q:** Lab note: need pIC50 for C[C@]12CC[C@H]3[C@@H](CCC4=CC(=O)NCC[C@@]43C)[C@@H]1CC[C@@H]2OC(=O)[C@@H](N)COc1ccc(N(CCCl)CCCl)cc1 on MDA-MB-453, anyone have it?
**A:** 6.00

----------
Readings of TGI for the listed compounds
# Test system: PC-3
# TEST_METHOD_NOTES: Growth inhibition of human PC-3 cells incubated for 48 hrs by MTT assay
# Assay type: functional
Could you give me the number in µM? Just the number is fine.

CC(=O)O[C@@H](COc1ccc(N(CCCl)CCCl)cc1)C(=O)O[C@H]1CC[C@H]2[C@@H]3CCC4=CC(=O)NCC[C@]4(C)[C@H]3C(=O)C[C@]12C ... 9
CC(=O)O[C@@H](COc1ccc(N(CCCl)CCCl)cc1)C(=O)O[C@H]1CC[C@H]2[C@@H]3CCC4=CC(=O)NCC[C@]4(C)[C@H]3CC[C@]12C ... 3.9
CC(=O)O[C@@H](COc1ccc(N(CCCl)CCCl)cc1)C(=O)Oc1ccc2c(c1)CC[C@@H]1[C@@H]2CC[C@]2(C)NC(=O)CC[C@@H]12 ... 8.9
C[C@]12CC(=O)[C@H]3[C@@H](CCC4=CC(=O)NCC[C@@]43C)[C@@H]1CC[C@@H]2OC(=O)[C@@H](O)COc1ccc(N(CCCl)CCCl)cc1 ... 9

Now consider the entry below.
**Q:** Lab note: need TGI for C[C@]12CC[C@H]3[C@@H](CCC4=CC(=O)NCC[C@@]43C)[C@@H]1CC[C@@H]2OC(=O)[C@@H](O)COc1ccc(N(CCCl)CCCl)cc1 on PC-3, anyone have it?
**A:** 4
